I'd be grateful if you could share measured inhibition at 10 µg/mL for these entries.
Tested on: Escherichia coli
Experiment: Microtiter plate biofilm formation assay (crystal violet), Escherichia coli
Assay type: cell-based
Settings: 10 μg/ml, same microtiter assay, read-out: % Biofilm Inhibition of E. coli
Answers are plain numbers, in %.

Examples from the recorded data:
INSERT INTO assay_data (compound, quantity, recorded_measurement) VALUES
  ('C[C@@H]1CCC2(C(=O)O)CC[C@]3(C)C(=CCC4[C@@]5(C)C[C@@H](O)[C@H](O)[C@@](C)(CO)C5CC[C@]43C)C2[C@H]1C (some centres unmarked)', 'inhibition at 10 µg/mL', 75),
  ('C[C@H]1[C@H](C)CC[C@]2(C(=O)O)CC[C@]3(C)C(=CC[C@@H]4[C@@]5(C)CC[C@H](O)C(C)(C)[C@@H]5CC[C@]43C)[C@H]12', 'inhibition at 10 µg/mL', 80),
  ('CC1(C)CC[C@]2(C(=O)O)CC[C@]3(C)C(=CC[C@@H]4[C@@]5(C)CC[C@H](O)C(C)(C)[C@@H]5CC[C@]43C)[C@@H]2C1', 'inhibition at 10 µg/mL', 35),
  ('C[C@@H]1CC[C@]2(C(=O)O)CCC3(C)C(=CCC4C5(C)C[C@@H](O)[C@H](O)C(C)(C)C5CCC43C)C2[C@H]1C (stereo partly drawn) [Compound 108, 2α,3β-dihydroxy-12-ursen-28-oic acid]', 'inhibition at 10 µg/mL', 74);

We next turn to a different compound, shown below.
Entry CC1(C)CC[C@@]2(C(=O)O)C(O)C[C@]3(C)C(=CCC4[C@@]5(C)CC[C@H](O)[C@@](C)(CO)C5CC[C@]43C)C2C1 (some centres unmarked) has what inhibition at 10 µg/mL?
35
